Data origin, for the record: patent US8445501B2

Please respond with reported pIC50 for every item in the list.
- assayedSystem: UniProt:O76074
- testDetails: Inhibition of the type 5 phosphodiesterase (PDE5) activity, modified SPA test with platelet lysate
- protocolConditions: PDE5 from human platelet lysate, 0.5 μM cGMP
Numbers only, as −log10 of the molar value.

Solved cases below.
>>> df
                                   compound   assayedsystem  quantityname  readoutnumber
0  CCOC(=O)N1CCC(NC(=O)c2c[nH]c3c(-c4cc(C)ccc4OCC4CC4)ncnc23)CC1  UniProt:O76074         pIC50           8.93
1  O=CN1CCCC(CNC(=O)c2c[nH]c3c(-c4c(OCC5CC5)ccc5c4OCO5)ncnc23)C1 (centres unmarked)  UniProt:O76074         pIC50           9.16
2  COc1ccc(OCC2CC2)c(-c2ncnc3c(C(=O)N[C@H]4CC[C@@H](NC(C)=O)CC4)c[nH]c23)c1  UniProt:O76074         pIC50           8.86
3  COCC(=O)N[C@H]1CC[C@H](NC(=O)c2c[nH]c3c(-c4cc(F)c(OC)cc4OCC4CC4)ncnc23)CC1  UniProt:O76074         pIC50           9.27
4  CCOC(=O)N1CCC(NC(=O)c2c[nH]c3c(-c4c(OCC5CCC5)ccc5c4OCO5)ncnc23)CC1  UniProt:O76074         pIC50           9.53
5  COCCNC(=O)[C@H]1CC[C@H](NC(=O)c2c[nH]c3c(-c4c(OCC5CCC5)ccc5c4OCO5)ncnc23)CC1  UniProt:O76074         pIC50           9.46
6  CCOc1ccc2c(c1-c1ncnc3c(C(=O)N[C@@H]4CCN(C(=O)CC)C4)c[nH]c13)OCO2  UniProt:O76074         pIC50           8.43
7  COCCNC(=O)[C@H]1CC[C@H](NC(=O)c2c[nH]c3c(-c4ccc(OC)cc4OCC4CC4)ncnc23)CC1  UniProt:O76074         pIC50           9.15
8  O=C(NC1CCN(C(=O)CO)CC1)c1c[nH]c2c(-c3cc(F)ccc3OCC3CC3)ncnc12  UniProt:O76074         pIC50           8.13
9  CC(=O)N1CCC(NC(=O)c2c[nH]c3c(-c4cc(F)c(OC(F)F)cc4OCC4CC4)ncnc23)CC1  UniProt:O76074         pIC50           8.63

Bench note, UniProt:O76074: COCC(=O)N[C@H]1CC[C@H](NC(=O)c2c[nH]c3c(-c4c(OCC5CC5)ccc5c4OCO5)ncnc23)CC1 , pIC50 reads 9.85

###

Please respond with reported IC50 for every item in the list.
- assayedSystem: human PDE5 (Homo sapiens, UniProt O76074)
- testDetails: Inhibition of the type 5 phosphodiesterase (PDE5) activity, modified SPA test with platelet lysate
- protocolConditions: PDE5 from human platelet lysate, 0.5 μM cGMP
One number for each entry, in nM.

Solved cases below.
>>> df
                                   compound  quantityname  readoutnumber
0  CC(=O)N1CCC(CNC(=O)c2c[nH]c3c(-c4c(OCC5CC5)ccc5c4OCO5)ncnc23)CC1 [Example 24]          IC50          0.302
1  CCCOc1ccc2c(c1-c1ncnc3c(C(=O)N[C@@H]4CCN(C(=O)OCC)C4)c[nH]c13)OCO2 [Example 142]          IC50          0.617
2  O=C(NCC1CN(C(=O)CO)CCO1)c1c[nH]c2c(-c3c(OCC4CC4)ccc4c3OCO4)ncnc12 (centres unmarked) [Example 193]          IC50           1.07
3  CCOC(=O)N1CCC(NC(=O)c2c[nH]c3c(-c4ccc(OC)cc4OCC4CC4)ncnc23)CC1 [Example 62]          IC50          0.309

# input for lookup
The recorded IC50 for entry CC(=O)c1cc(-c2ncnc3c(C(=O)NC4CCN(C(C)=O)CC4)c[nH]c23)c(OCC2CC2)cc1C [Example 268] equals 0.794
